# System: MHC-I expression by COLO 205 cells
# Assay comment: cells
# Assay type: cell-based, human
# Conditions used: Homo sapiens, COLO 205, 48 h, MHC-I expression, COLO 205 cells, compounds at 35 μM, 48 hours, flow cytometry (W6/32); read-out: Induction Fold
Structures can show the parent of a compound that is named as a salt.
Values of fold induction at 35 µM greater than or equal to 2 map to 1; values below map to -1.

Incoming: In plain terms: is recorded fold induction at 35 µM at least 2 for CCCCCn1nc(C(=O)Nc2cccc3ccccc23)c2ccccc21 ?
Outgoing: -1

Incoming: In plain terms: is recorded fold induction at 35 µM at least 2 for O=C(Oc1cccc2cccnc12)c1nn(Cc2ccc(F)cc2)c2ccccc12 ?
Outgoing: -1

Incoming: In plain terms: is recorded fold induction at 35 µM at least 2 for CCCCCn1cc(C(=O)NC(C(N)=O)C(C)(C)C)c2ccccc21 (centres unmarked) ?
Outgoing: 1

Incoming: In plain terms: is recorded fold induction at 35 µM at least 2 for O=C(Oc1cnc2ccccc2c1)c1cn(CC2CCCCC2)c2ccccc12 ?
Outgoing: -1

Incoming: In plain terms: is recorded fold induction at 35 µM at least 2 for CN(C)C(=O)n1nnc(Cc2ccc(-c3ccccc3)cc2)n1 ?
Outgoing: -1

Incoming: In plain terms: is recorded fold induction at 35 µM at least 2 for CCCCn1cc(C(=O)c2ccc(C)c3ccccc23)c2ccccc21 ?
Outgoing: 1

Incoming: In plain terms: is recorded fold induction at 35 µM at least 2 for CCC(F)CCn1cc(C(=O)C2C(C)(C)C2(C)C)c2ccccc21 (centres unmarked) ?
Outgoing: 1

Incoming: In plain terms: is recorded fold induction at 35 µM at least 2 for CCCCCn1cc(C(=O)Cc2ccc(C)cc2)c2ccccc21 ?
Outgoing: -1

Incoming: In plain terms: is recorded fold induction at 35 µM at least 2 for O=C(NC12CC3CC(CC(C3)C1)C2)c1cn(CCCCCF)c2ccccc12 ?
Outgoing: 1

Incoming: In plain terms: is recorded fold induction at 35 µM at least 2 for CCCCCn1c(C(=O)c2cccc3ccccc23)nc2ccccc21 ?
Outgoing: 1

Incoming: In plain terms: is recorded fold induction at 35 µM at least 2 for COc1ccc(C(=O)c2cn(CCN3CCOCC3)c3ccccc23)c2ccccc12 ?
Outgoing: 1

Incoming: In plain terms: is recorded fold induction at 35 µM at least 2 for O=C(Nc1ccc2ccccc2c1)c1cn(CCCCCF)c2ccccc12 ?
Outgoing: -1

Incoming: In plain terms: is recorded fold induction at 35 µM at least 2 for O=C(c1cn(CCCCCF)c2ccccc12)N1CCN(Cc2ccccc2)CC1 [Example 324, monohydrochloride] ?
Outgoing: -1

Incoming: In plain terms: is recorded fold induction at 35 µM at least 2 for CCCCCn1cc(C(=O)Cc2ccccc2Cl)c2ccccc21 ?
Outgoing: -1

Incoming: In plain terms: is recorded fold induction at 35 µM at least 2 for CC1(C)C(C(=O)N/N=C2\C(=O)N(CCCCCF)c3ccccc32)C1(C)C ?
Outgoing: 1

Incoming: In plain terms: is recorded fold induction at 35 µM at least 2 for CCCCCn1cc(C(=O)NC23CC4CC(CC(C4)C2)C3)c(=O)c2cc(C(C)C)ccc21 ?
Outgoing: -1

Incoming: In plain terms: is recorded fold induction at 35 µM at least 2 for CCCCCc1cc(OC)c2cc(Cc3ccccc3OC)c(=O)oc2c1 ?
Outgoing: -1

Incoming: In plain terms: is recorded fold induction at 35 µM at least 2 for CCCC(Cl)Cn1cc(C(=O)C2C(C)(C)C2(C)C)c2ccccc21 (centres unmarked) ?
Outgoing: 1

Incoming: In plain terms: is recorded fold induction at 35 µM at least 2 for CCCCCn1cc(C(=O)Oc2cccc3ccncc23)c2ccccc21 ?
Outgoing: 1

====

# Tested on: MHC-I expression by COLO 205 cells
# Assay comment: cells
# Assay type: cell-based, human
Values of Induction Fold greater than or equal to 2 Fold map to satisfied; values below map to not satisfied.

Some solved entries appear below for comparison.
COC(=O)[C@@H](NC(=O)c1nn(CCCC(C)F)c2ccccc12)C(C)C (some centres unmarked) [Example 268] : not satisfied
CCC(F)CCn1nc(C(=O)N[C@H](C(=O)OC)C(C)C)c2ccccc21 (some centres unmarked) [Example 210] : not satisfied
CCCn1cc(C(=O)c2cccc3ccccc23)c2ccccc21 [Example 65] : satisfied
CCCCCn1cc(C(=O)c2cc(C)cc3ccccc23)c2ccccc21 [Example 219] : not satisfied
CCCCCn1cc(C(=O)c2cccc3ccccc23)cc1-c1ccccc1C [Example 60] : satisfied

Incoming: In plain terms: is recorded Induction Fold at least 2 Fold for CS(=O)(=O)O.Cc1c(C(=O)c2cccc3ccccc23)c2cccc3c2n1[C@H](CN1CCOCC1)CO3 [Example 379] ?
Outgoing: not satisfied

Incoming: In plain terms: is recorded Induction Fold at least 2 Fold for O=C(c1cccc2ccccc12)c1cn(CCN2CCOCC2)c2ccccc12 [Example 57] ?
Outgoing: satisfied

Incoming: In plain terms: is recorded Induction Fold at least 2 Fold for CS(=O)(=O)O.Cc1c(C(=O)c2cccc3ccccc23)c2cccc3c2n1C(CN1CCOCC1)CO3 (centres unmarked) [Example 376] ?
Outgoing: not satisfied

Incoming: In plain terms: is recorded Induction Fold at least 2 Fold for CCCCCn1cc(C(=O)c2cccc3ccccc23)cc1-c1ccccc1 [Example 77] ?
Outgoing: satisfied

Incoming: In plain terms: is recorded Induction Fold at least 2 Fold for C#CCCCCCCCCCNC(=O)Oc1cccc(-c2cccc(C(N)=O)c2)c1 [Example 182] ?
Outgoing: not satisfied

Incoming: In plain terms: is recorded Induction Fold at least 2 Fold for CCCCn1c(C)c(C(=O)c2cccc3ccccc23)c2ccccc21 [Example 122] ?
Outgoing: satisfied

====

# Test system: MHC-I expression by COLO 205 cells
# Assay comment: cells
# Assay type: cell-based, human
# Conditions used: Homo sapiens, COLO 205, 48 h, MHC-I expression, COLO 205 cells, compounds at 35 μM, 48 hours, flow cytometry (W6/32); read-out: Induction Fold
Property measured: fold induction at 35 µM

For every record below, what is its fold induction at 35 µM?
1. CCCC(C)n1cc(C(=O)c2ccc3ccccc3c2)c2ccccc21 (stereo not shown)
2. CCC(C)(NC(=O)c1nn(Cc2ccc(F)cc2)c2ccccc12)C(N)=O (single isomer, unassigned)
3. CCCCCn1cc(C(=O)Cc2ccccc2C)c2ccccc21
4. O=C(Oc1cccc2ncccc12)c1cn(CC2CCCCC2)c2ccccc12

Outgoing:
1. 0.95
2. 1.45
3. 2.42
4. 1.86

For every record below, what is its fold induction at 35 µM?
1. C=CCCCn1cc(C(=O)c2ccc(C)c3ccccc23)c2ccccc21
2. COc1ccc2c(c1)c(CC(=O)N1CCOCC1)c(C)n2C(=O)c1ccc(Cl)cc1

Outgoing:
1. 1.2
2. 2.32

====

# System: MHC-I expression by COLO 205 cells
# Assay comment: cells
# Type: cell-based, human
# Conditions used: MHC-I expression, COLO 205 cells, compounds at 35 μM, 48 hours, flow cytometry (W6/32)
Property measured: Induction Fold (Fold)
Give bare numbers, in Fold.

CC1=CC[C@@H]2[C@@H](C1)c1c(O)cc(C(C)(C)c3ccccc3)cc1OC2(C)C [Example 367] : 0.87
CCCCCn1nc(C(=O)OC23CC4CC(CC(C4)C2)C3)c2ccccc21 [Example 243] : 1.67
CCCC(C)(C)c1ccc2c(c1)OC(C)(C)[C@@H]1CC=C(C)C[C@@H]21 [Example 188] : 1.90
CCCCCCCC/C=C\CCCCCCCC(=O)N[C@H](C)CO [Example 242] : 1.67
COC(=O)[C@@H](NC(=O)c1cn(Cc2ccc(F)cc2)c2ccccc12)C(C)(C)C [Example 269] : 1.54
CCCCCn1nc(C(=O)N[C@H](C(=O)OC)C(C)C)c2ccccc21 [Example 183] : 1.91

For every record below, what is its Induction Fold?
1. O=C(c1cccc2ccccc12)c1cn(CCCCCF)c2ccccc12 [Example 79]
2. COC(=O)[C@H](NC(=O)c1nn(CCCCCF)c2ccccc12)C(C)(C)C [Example 179]
3. COC(=O)[C@@H](NC(=O)c1nn(CCCCCF)c2ccccc12)C(C)C [Example 279]

Outgoing:
1: 2.57; 2: 1.94; 3: 1.49

====

I'd appreciate it if you could supply fold induction at 35 µM values for the items below.
# Test system: MHC-I expression by COLO 205 cells
# Assay comment: cells
# Type: cell-based, human
# Conditions used: Homo sapiens, COLO 205, 48 h, MHC-I expression, COLO 205 cells, compounds at 35 μM, 48 hours, flow cytometry (W6/32); read-out: Induction Fold
Give bare numbers.

CCCC(F)CCn1cc(C(=O)c2cccc3ccccc23)c2ccccc21 (centres unmarked) [Example 176] : 1.95
CC(C)(NC(=O)c1nn(CCCCC#N)c2ccccc12)c1ccccc1 [Example 281] : 1.48
CC(C)[C@H](NC(=O)c1nn(Cc2ccc(F)cc2)c2ccccc12)C(N)=O [Example 172] : 1.99
O=C(c1nn(CCCCCF)c2ccccc12)N1CCCC1 [Example 230] : 1.72
CCCCCn1cccc1C(=O)c1cccc2ccccc12 [Example 178] : 1.94
CC(C)(NC(=O)c1cn(CCCCCF)c2ccccc12)c1ccccc1 [Example 356] : 1.03

For every record below, what is its fold induction at 35 µM?
1. CCCCCn1cc(C(=O)Cc2ccc(Cl)cc2)c2ccccc21 [Example 64]
2. CCCCCn1cc(C(=O)Cc2ccc(OC)cc2)c2ccccc21 [Example 59]

Outgoing:
[2.77, 2.85]
